Source: PubChem BioAssay (NCI)

Test system: LOX IMVI melanoma
Assay: NCI-60 one-dose screen, 48 h (100 = growth as untreated, 0 = no growth, -100 = all killed)
Conditions: 10 µM unless noted
This is part of a sample that, as a whole, favours compounds with a hit. Of some 83,000 tested, about 20% had one in any assay.
quantity_name: growth (%)
One number for each entry, in %.

# molecule, assayed_system, result_unit, growth
records = [
    ("Nc1nc2c(c3ncccc13)C(c1ccccc1)Cc1ncccc1-2 (configuration not stated)", "LOX IMVI melanoma", "%", 70.9),
]

Batch of 3 molecules: report growth for each.
1. O=C(CS)OCC(COC(=O)CS)(COC(=O)CS)COC(=O)CS
2. CC(C)c1[nH]ncc1-c1nc2ccc3[nH]ncc3c2c2c1CCCC2
3. Fc1cnccc1-c1nc2ccc3[nH]ncc3c2c2c1CCCC2

70.5
23.6
22.8
